// provenance: ChEMBL document CHEMBL3507680

Below, each entry is listed alongside its reported cytotoxicity at 70.5 h.
assay: Human HepG2 cell viability assay in 384 well format; assay type: toxicity, cell-based; parameters: dose 125 nL, time 70.5 hour; concentration not given beside the values; conditions: HepG2 cells, read-out: Inhibition
Answer with a number only, understood to be in %.

Below, each entry is followed by its recorded cytotoxicity at 70.5 h result.
Exercise: What value of measured cytotoxicity at 70.5 h is listed for CN(C)C(=O)CO[C@H]1CO[C@@]2(CCN(S(C)(=O)=O)C2)C1 ?
Solution: -6.98

Exercise: Param item = Cc1ccc(CN2C[C@@H]3CCCO[C@@H]3[C@H](NC(=O)CC3CC3)C2)s1 ; retrieve measured cytotoxicity at 70.5 h.
Solution: -1.25

Exercise: Recorded cytotoxicity at 70.5 h for Cc1cc(=O)c2ccccc2n1CC1CCCN(C)C1 (stereo not drawn) , please?
Solution: 31.9

More entries:
Exercise: # cytotoxicity at 70.5 h lookup, item CN(C)C(=O)CCN1CC(c2ccccc2)(c2ccccc2)CCC1=O
Solution: 4.06

----------
assay: Human HepG2 cell viability assay in 384 well format; type: toxicity, cell-based; design: dose 125 nL, time 70.5 hour; concentration not given beside the values; details: HepG2 cells, read-out: Inhibition
parameter_measured: cytotoxicity at 70.5 h (%)
Expressed in %, but write only the number.

Exercise: # get_value(readout='cytotoxicity at 70.5 h', item= CCOCc1cnc2n1CCN(C(=O)Cc1ccccn1)C2C (configuration not stated) )
Solution: -5.89

Exercise: I have this molecule here, CC(NC(=O)c1cccs1)C(=O)NCc1cccnc1N1CCCCC1 (configuration not stated) , and I need its recorded cytotoxicity at 70.5 h.
Solution: -16.1

Exercise: // cytotoxicity at 70.5 h lookup, key: COc1ccc(CNC(Cc2ccsc2)c2ncccc2C)cc1OC (configuration not stated)
Solution: -4.5

***
Exercise: So what's the measured cytotoxicity at 70.5 h for this one? CCN(CC)C1CCN(C(=O)NCc2c(C)noc2C)CC1
Solution: -7.03

Exercise: Please look up its cytotoxicity at 70.5 h: COc1ncc(C2(O)CCN(Cc3cc(F)ccc3F)CC2)c(OC)n1
Solution: -5.13

Exercise: Record request: cytotoxicity at 70.5 h value, item Cc1cnc(CNc2c(F)cccc2-n2cccn2)o1
Solution: 7.74

Exercise: Fill in the blank: the reported cytotoxicity at 70.5 h of Cn1cc(N2C(=O)C[C@@H]3[C@@H]2CCN3C(=O)c2ccco2)cn1 is ____.
Solution: -6.04

Exercise: Can you look up the measured cytotoxicity at 70.5 h of COc1ccccc1C(=O)N1CC(=O)N(Cc2ccco2)CC(O)C1 (configuration not stated) for me?
Solution: -12.4

Exercise: Which cytotoxicity at 70.5 h is listed for C[C@@H](O)CNC(=O)c1nc(CC(=O)Nc2ccccc2)no1 ?
Solution: -19.3

Exercise: Return reported cytotoxicity at 70.5 h; argument: CCC(O)CN1CCN(C(=O)c2sccc2C(C)C)CC1 (configuration not stated)
Solution: -7.94

Exercise: Fill blank: measured cytotoxicity at 70.5 h of the molecule CN(Cc1ccon1)C1CCN(c2cccc(-c3cscn3)c2)CC1 is ____.
Solution: -4.4

Exercise: For the molecule shown here, CC(C)Cc1cc(NC(=O)c2cccnc2)n(C)n1 , give the reported cytotoxicity at 70.5 h.
Solution: -9.43

----------
assay: Human HepG2 cell viability assay in 384 well format; format: toxicity, cell-based; design: dose 125 nL, time 70.5 hour; concentration not given beside the values; settings: HepG2 cells, read-out: Inhibition
cytotoxicity at 70.5 h values by entry
All answers are understood in %, so give the number only.

Exercise: I would be grateful if you could share the reported cytotoxicity at 70.5 h for Fc1cc(CN2CCOC3(CCOCC3)C2)ccc1Cl .
Solution: -1.5

Exercise: Which measured cytotoxicity at 70.5 h value corresponds to O=C(CNCCn1cccn1)NCC1(c2ccccc2)CCC1 ?
Solution: 1.86

Exercise: Which cytotoxicity at 70.5 h reading was recorded for the molecule COc1ccc(Cn2cc(C(=O)N(C)Cc3ccn[nH]3)nn2)cc1 ?
Solution: -18.5

Exercise: Would you mind telling me what cytotoxicity at 70.5 h value was observed for CCOc1ccccc1CNC(=O)Cn1ccc2c(C)nn(C)c2c1=O ?
Solution: -5.58

Exercise: Quick check: cytotoxicity at 70.5 h of CCOC(=O)C1CCN(c2nccc(-n3nc(C)cc3C)n2)CC1 ?
Solution: -3.45

Continue with the next molecule.
Exercise: Consider the molecule COCCNC(=O)c1ccc2ccc(N3CCN(CC4CC4)CC3)n2c1 and give its measured cytotoxicity at 70.5 h.
Solution: 24.5

----------
assay: Human HepG2 cell viability assay in 384 well format; type: toxicity, cell-based; parameters: dose 125 nL, time 70.5 hour; concentration not given beside the values; conditions: HepG2 cells, read-out: Inhibition
Here, each record is paired with measured cytotoxicity at 70.5 h data.
Return type: number; implicit unit %.

Example entries begin here.
Exercise: Which cytotoxicity at 70.5 h is listed for COCCN(C)C(C(=O)O)c1ccc(F)c(Cl)c1 (centres undefined) ?
Solution: 30.8

Exercise: Reported cytotoxicity at 70.5 h, compound COc1ccccc1Oc1ncccc1CNC(=O)[C@H](N)CC(C)(C)C : ____
Solution: -5.62

Kindly review the next compound as well.
Exercise: GET /values?readout=cytotoxicity at 70.5 h&item= CC(C)(NC(=O)Cc1ccccc1F)C(=O)O
Solution: -4.89

----------
# cytotoxicity at 70.5 h per entry
experiment: Human HepG2 cell viability assay in 384 well format; format: toxicity, cell-based; design: dose 125 nL, time 70.5 hour; concentration not given beside the values; conditions: HepG2 cells, read-out: Inhibition
Reply with just the number (in %).

Answered cases to consult:
Exercise: GET /values?readout=cytotoxicity at 70.5 h&item= COC(=O)C(C)(C)NC(=O)C1CC(=O)N(CC(C)C)C1 (stereo unspecified)
Solution: -0.314

Exercise: Fill blank: measured cytotoxicity at 70.5 h of the molecule NC(=O)c1cccc(C(=O)N2CCCC(n3ccnc3)C2)c1 (stereo unspecified) is ____.
Solution: -3.58

Exercise: Return reported cytotoxicity at 70.5 h; argument: CCCNC(=O)C1(CC2CC(c3ccccc3OC)=NO2)CCOCC1 (stereo unspecified)
Solution: 6.7

Exercise: GET /values?readout=cytotoxicity at 70.5 h&item= CC(C)NC(=O)CCNC(=O)CCc1cc(Cl)cs1
Solution: -8.99

Exercise: Query (molecule): CC(O)CCn1ccc2[nH]c(=O)c(C#N)cc2c1=O (stereo unspecified) ; field requested: cytotoxicity at 70.5 h
Solution: 4.38

Turning to the following molecule.
Exercise: cytotoxicity at 70.5 h lookup needed for CCN1CCC(NC(=O)CN2CCCC2Cn2cncn2)CC1 (stereo unspecified) , thanks.
Solution: -2.95

----------
assay: Human HepG2 cell viability assay in 384 well format; type: toxicity, cell-based; parameters: dose 125 nL, time 70.5 hour; concentration not given beside the values; conditions: HepG2 cells, read-out: Inhibition
Recorded cytotoxicity at 70.5 h values for a group of molecules are listed next.
State the answer as a number, implicitly in %.

Exercise: Can you share its cytotoxicity at 70.5 h? I mean this molecule: CN(C)CC1CN(Cc2coc(-c3cccs3)n2)CCO1 (stereo not drawn)
Solution: 1.06

Exercise: Quick one: cytotoxicity at 70.5 h of C1CCC(CO[C@@H]2CC[C@H]3[C@H]2OCCN3CC2CCOCC2)C1 ?
Solution: -84.4

Exercise: Which cytotoxicity at 70.5 h reading was recorded for the molecule COc1ccc(C2CCCCCN2CCCNS(C)(=O)=O)cc1 (stereo not drawn) ?
Solution: -6.03

Exercise: So what's the measured cytotoxicity at 70.5 h for this one? CC(=O)N1CCC(c2c(CN(C)C)cnc3cc(C)nn23)CC1
Solution: 15.7

Exercise: Requested field: cytotoxicity at 70.5 h. Item: CC(C)Cn1c(=O)nc2n1C(=O)N(c1ccc(F)cc1)C2
Solution: -25.8

Exercise: Suppose we examine the molecule N#Cc1ccc(C(=O)N2CCC(Oc3ccc(C#N)cn3)CC2)cc1 ; what cytotoxicity at 70.5 h value has been reported?
Solution: -3.02

Exercise: Recorded cytotoxicity at 70.5 h of CC1(c2ccccc2)CCC(=O)N(CCN2CCCOC2=O)C1 (stereo not drawn) , please.
Solution: -6.79

Exercise: Quick check: cytotoxicity at 70.5 h of COc1cccc(C2C3=C(COC3=O)Nc3[nH]nc(C)c32)c1O (stereo not drawn) ?
Solution: -3.51

Exercise: Consider the molecule shown here: Cc1nccc(CNC(=O)CCc2c(C)nc3cc(O)nn3c2C)n1 What is its recorded cytotoxicity at 70.5 h?
Solution: -5.73

----------
cytotoxicity at 70.5 h: recorded values
assay: Human HepG2 cell viability assay in 384 well format; type: toxicity, cell-based; design: dose 125 nL, time 70.5 hour; concentration not given beside the values; conditions: HepG2 cells, read-out: Inhibition
Quick reminder: number only, in %, skip the unit.

Reference set (3 entries):
Exercise: // query cytotoxicity at 70.5 h value for entry CCOc1ncccc1CNS(=O)(=O)c1ccc2c(c1)CCO2
Solution: -2.87

Exercise: Bench note: what cytotoxicity at 70.5 h did CSc1ncn(-c2nc(N(C)C)nc(N(C)C)n2)n1 show?
Solution: 36.4

Exercise: I would be grateful if you could share the reported cytotoxicity at 70.5 h for CCS(=O)(=O)CCN1CCCC1c1noc(C)n1 (stereo unspecified) .
Solution: -8.31

New cases:
Exercise: Using the record for CC(C)c1nn(C)c(Cl)c1CNCC(=O)N1CCN(C)CC1 , report its cytotoxicity at 70.5 h.
Solution: -4.93

Exercise: Tell me the measured cytotoxicity at 70.5 h of COC1COC2(CCN(Cc3ccc4ccccc4n3)CC2)C1 (stereo unspecified) , please.
Solution: -12.9

Exercise: Param item = CCO[C@H]1CO[C@@]2(CCCN(Cc3scnc3C)C2)C1 ; retrieve measured cytotoxicity at 70.5 h.
Solution: 14.7
